- Test summary: Cytotoxicity against human Raji cells assessed as cell viability at 1000 molar ratio by Trypan blue method
- Format: cell-based
- Experimental context: read-out: Activity
Would you mind telling me the reported viability at 1000 molar ratio of each entry?
Numbers only here, please. The scale is %.

Request: # get_value(readout='viability at 1000 molar ratio', item= COc1cc(/C=C/C(=O)OC[C@H]2O[C@@](COC(=O)/C=C/c3ccc(O)c(OC)c3)(O[C@H]3O[C@H](COC(=O)/C=C/c4ccc(O)c(OC)c4)[C@@H](O)[C@H](O)[C@H]3O)[C@@H](OC(=O)/C=C/c3ccc(O)cc3)[C@@H]2O)ccc1O [LAPATHOSIDE B] )
Result: 60

Request: # get_value(readout='viability at 1000 molar ratio', item= CC[C@H](CC[C@@H](C)[C@H]1CC[C@H]2[C@@H]3CC=C4C[C@@H](O[C@@H]5O[C@H](CO)[C@@H](O)[C@H](O)[C@H]5O)CC[C@]4(C)[C@H]3CC[C@]12C)C(C)C [SITOGLUSIDE] )
Result: 60

Request: # get_value(readout='viability at 1000 molar ratio', item= COC(=O)/C=C/c1ccc(O)cc1 [METHYL P-HYDROXYCINNAMATE] )
Result: 70
